molecular target: JAK1 (Homo sapiens); construct: purchased Carna Biosciences, Inc; assay: JAK tyrosine kinase inhibitory activity in the presence of 1 mM ATP (ELISA), JAK1; type: biochemical
Sequence (P23458 whole entry): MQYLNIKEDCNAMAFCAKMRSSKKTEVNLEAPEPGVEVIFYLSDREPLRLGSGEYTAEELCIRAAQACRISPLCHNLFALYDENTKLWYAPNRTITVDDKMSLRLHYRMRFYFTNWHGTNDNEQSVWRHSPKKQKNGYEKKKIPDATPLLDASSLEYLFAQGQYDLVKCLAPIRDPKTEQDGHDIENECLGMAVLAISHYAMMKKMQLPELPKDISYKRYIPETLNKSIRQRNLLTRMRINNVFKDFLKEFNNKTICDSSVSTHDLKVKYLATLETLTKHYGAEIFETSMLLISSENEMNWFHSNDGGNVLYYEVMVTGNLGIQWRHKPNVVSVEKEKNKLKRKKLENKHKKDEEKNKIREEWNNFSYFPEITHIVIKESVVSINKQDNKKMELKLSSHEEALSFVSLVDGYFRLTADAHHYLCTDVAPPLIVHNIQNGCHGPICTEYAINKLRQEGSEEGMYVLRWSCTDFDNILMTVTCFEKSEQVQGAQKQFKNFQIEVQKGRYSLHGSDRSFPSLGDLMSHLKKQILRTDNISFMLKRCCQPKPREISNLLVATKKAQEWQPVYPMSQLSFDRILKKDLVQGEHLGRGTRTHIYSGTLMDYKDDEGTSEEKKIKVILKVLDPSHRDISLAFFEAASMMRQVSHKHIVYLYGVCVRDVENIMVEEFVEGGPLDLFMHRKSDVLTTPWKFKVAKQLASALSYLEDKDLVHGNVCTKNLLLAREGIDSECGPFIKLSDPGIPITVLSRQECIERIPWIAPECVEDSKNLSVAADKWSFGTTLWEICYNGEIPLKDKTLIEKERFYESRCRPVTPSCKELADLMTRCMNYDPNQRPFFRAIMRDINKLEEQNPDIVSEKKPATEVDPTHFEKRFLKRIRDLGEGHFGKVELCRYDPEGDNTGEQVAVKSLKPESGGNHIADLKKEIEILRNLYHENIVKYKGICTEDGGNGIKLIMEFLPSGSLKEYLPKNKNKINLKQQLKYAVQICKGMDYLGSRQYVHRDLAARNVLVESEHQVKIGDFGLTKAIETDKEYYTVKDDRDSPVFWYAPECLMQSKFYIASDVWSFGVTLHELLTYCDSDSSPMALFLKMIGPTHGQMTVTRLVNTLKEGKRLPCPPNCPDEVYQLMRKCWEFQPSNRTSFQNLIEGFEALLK
Where a name gives a salt, the structure may show the parent alone.
readout-label: IC50 (nM)
Respond numerically; units are nM and should not be typed.

Some compounds with known IC50 results, for comparison:
{"compound": "COC(=O)NC1CCN(C(=O)c2cc(N[C@H]3CCN(C(=O)OC(C)(C)C)C3)nc(-c3cnn4ccsc34)n2)CC1 [Example 147]", "measure-unit": "nM", "IC50": 2600}
{"compound": "COC(=O)NC1CCN(C(=O)c2cc(NC3CCN(C(=O)CC#N)CC3)nc(-c3cnn4ccsc34)n2)CC1 [Example 199]", "measure-unit": "nM", "IC50": 2800}
{"compound": "COCCOC(=O)NC1CCN(C(=O)c2cc(N[C@H](C)C(C)(C)C)nc(-c3cnn4ccsc34)n2)CC1 [Example 90]", "measure-unit": "nM", "IC50": 620}
{"compound": "CCC(CC)N(C)c1cc(C(=O)N2CCC(O)CC2)nc(-c2cnn3ccsc23)n1 [Example 120, hydrochloride]", "measure-unit": "nM", "IC50": 870}
{"compound": "O=C(NC1CCN(C(=O)c2cc(NC3COC3)nc(-c3cnn4ccsc34)n2)CC1)C1CC1 [Example 173]", "measure-unit": "nM", "IC50": 3400}

Reported IC50 of CCC(CC)COc1cc(C(=O)N2CCC(NC(=O)C3CC3)CC2)nc(-c2cnn3ccsc23)n1 [Example 107] : 200

IC50 recorded for this compound, CC(C)(C)Nc1cc(C(=O)N2CCC(NC(=O)OC3CC3)CC2)nc(-c2cnn3ccsc23)n1 [Example 135] , is 68

====

target: JAK1 (Homo sapiens); construct: purchased Carna Biosciences, Inc; assay: JAK tyrosine kinase inhibitory activity in the presence of 1 mM ATP (ELISA), JAK1; type: biochemical
Response field label takes class 1 when IC50 is strictly below 100 nM and class 0 in all other cases.

{"compound": "O=C(NC1CCN(C(=O)c2cc(NCc3cccs3)nc(-c3cnn4ccsc34)n2)CC1)C1CC1 [Example 159]", "label-class": "class 0"}

Task: Please state whether IC50 is below 100 nM for Cc1c(N[C@@H](C)C(C)(C)C)nc(-c2cnn3ccsc23)nc1C(=O)N1CCC(NC(=O)C2CC2)CC1 [Example 7]
Output: class 1

Task: # TODO verify IC50 < 100 nM strictly for this compound: C[C@H](Nc1cc(C(=O)N2CCC(NC(=O)c3ccccc3)CC2)nc(-c2cnn3ccsc23)n1)C1CC1 [Example 30]
Output: class 0

====

molecular target: JAK2 (Homo sapiens); construct: purchased Carna Biosciences, Inc; experiment: JAK tyrosine kinase inhibitory activity in the presence of 1 mM ATP (ELISA), JAK2; assay type: biochemical
Sequence (O60674 whole entry): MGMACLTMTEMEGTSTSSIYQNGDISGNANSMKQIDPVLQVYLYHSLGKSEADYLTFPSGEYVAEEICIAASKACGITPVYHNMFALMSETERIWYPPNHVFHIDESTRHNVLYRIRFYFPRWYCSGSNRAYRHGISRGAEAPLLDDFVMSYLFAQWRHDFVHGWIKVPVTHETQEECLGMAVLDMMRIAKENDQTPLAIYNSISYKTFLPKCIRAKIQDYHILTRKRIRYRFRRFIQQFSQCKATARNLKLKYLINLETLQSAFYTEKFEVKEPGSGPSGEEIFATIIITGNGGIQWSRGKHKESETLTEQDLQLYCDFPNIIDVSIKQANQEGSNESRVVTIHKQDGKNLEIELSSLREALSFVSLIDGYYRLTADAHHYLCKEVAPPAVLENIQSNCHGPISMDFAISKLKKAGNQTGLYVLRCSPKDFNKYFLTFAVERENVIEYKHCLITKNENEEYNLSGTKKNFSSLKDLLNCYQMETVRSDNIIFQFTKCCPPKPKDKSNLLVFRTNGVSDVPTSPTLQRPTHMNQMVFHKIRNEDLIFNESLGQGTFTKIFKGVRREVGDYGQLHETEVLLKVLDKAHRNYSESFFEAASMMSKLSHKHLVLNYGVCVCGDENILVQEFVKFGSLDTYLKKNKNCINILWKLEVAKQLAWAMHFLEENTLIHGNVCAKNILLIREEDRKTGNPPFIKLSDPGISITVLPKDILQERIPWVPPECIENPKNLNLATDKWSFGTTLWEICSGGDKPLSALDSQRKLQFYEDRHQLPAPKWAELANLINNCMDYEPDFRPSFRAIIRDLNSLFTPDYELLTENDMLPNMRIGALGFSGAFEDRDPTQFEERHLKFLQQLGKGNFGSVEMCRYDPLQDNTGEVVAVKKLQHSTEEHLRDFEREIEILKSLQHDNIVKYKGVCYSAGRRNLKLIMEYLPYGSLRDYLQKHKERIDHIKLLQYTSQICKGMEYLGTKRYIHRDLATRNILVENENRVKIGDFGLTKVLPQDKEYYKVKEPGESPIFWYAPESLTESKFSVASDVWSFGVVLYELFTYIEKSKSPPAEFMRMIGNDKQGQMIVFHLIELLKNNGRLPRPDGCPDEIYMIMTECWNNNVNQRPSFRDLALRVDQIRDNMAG
readout-label: IC50

{"structure-smiles-string": "C[C@@H](Nc1cc(C(=O)N2CCC(NC(=O)OCC(F)(F)F)CC2)nc(-c2cnn3ccsc23)n1)C1CC1", "IC50": "2400 nM"}
{"structure-smiles-string": "COC(=O)NC1CCN(C(=O)c2cc(Oc3cccnc3)nc(-c3cnn4ccsc34)n2)CC1", "IC50": "> 10000 nM"}
{"structure-smiles-string": "N#CCC(=O)N1CC[C@H](Nc2cc(C(=O)N3CCC(NC(=O)C4CC4)CC3)nc(-c3cnn4ccsc34)n2)C1", "IC50": "> 10000 nM"}

In the following, a different molecule is considered.
Record summary for CN(C)C(=O)NC1CCN(C(=O)c2cc(NCC(C)(C)C)nc(-c3cnn4ccsc34)n2)CC1 : reported IC50 = 1400 nM

Source listed as patent US9999622B2.
